# testedSystem: 3-hydroxy-3-methylglutaryl coenzyme A reductase (HMGCR) (Homo sapiens)
# Construct: representing oxidation of NADPH by the catalytic subunit of HMGCR in the presence of the substrate
# Sequence (P04035 426-888 limits assumed, species assumed): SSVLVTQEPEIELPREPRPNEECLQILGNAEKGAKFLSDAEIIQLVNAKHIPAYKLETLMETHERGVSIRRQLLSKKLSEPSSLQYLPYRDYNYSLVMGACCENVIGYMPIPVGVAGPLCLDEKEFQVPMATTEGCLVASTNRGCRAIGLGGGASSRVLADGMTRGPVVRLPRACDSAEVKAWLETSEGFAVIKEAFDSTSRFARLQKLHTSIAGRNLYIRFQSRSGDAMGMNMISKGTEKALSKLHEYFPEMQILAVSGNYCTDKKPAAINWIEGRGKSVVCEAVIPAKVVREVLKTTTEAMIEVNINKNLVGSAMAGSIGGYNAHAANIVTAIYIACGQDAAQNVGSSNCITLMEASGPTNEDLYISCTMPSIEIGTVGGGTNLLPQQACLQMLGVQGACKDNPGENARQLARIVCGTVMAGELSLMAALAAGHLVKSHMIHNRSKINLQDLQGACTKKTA
# testDetails: Inhibition of HMGCR enzymatic activity in vitro (NADPH absorbance at 340 nm)
# conditionLabel: hydroxy acid forms; 20 min, 37° C.; read-out: IC50 (concentration at which 50% of the HMGCR enzymatic activity is inhibited)
readoutLabel: IC50 (µM)
Lab book: enter the figure in µM, no units written.

Query: Please state recorded IC50 (tested on 3-hydroxy-3-methylglutaryl coenzyme A reductase (HMGCR) (Homo sapiens)) of CCC(CC)C(=O)O[C@H]1C[C@@H](C)C=C2C=C[C@H](C)[C@H](CC[C@@H]3C[C@@H](O)C(C)C(=O)O3)[C@H]21 (stereo partly shown) [NST0076]
Result: 0.603
